// values below are reported % Helix in water ([Θ]222)
# protocolText: Far-UV CD of isolated peptides in aqueous solution (helicity)
# Assay type: physicochemical
# reportedConditions: from molar ellipticity at 222 nm assuming 100% helix = −31500 deg cm^2 dmol^−1; 5 °C, 50 mM phosphate pH 6.8

compound: CC(=O)N[C@@H](CCC(=O)O)C(=O)N[C@@H](CC(=O)O)C(=O)N[C@@H](Cc1ccccc1)C(=O)N[C@@H](CC(=O)O)C(=O)N[C@@H](CC(=O)O)C(=O)N[C@@H](CC(C)C)C(=O)N[C@@H](Cc1c[nH]c2ccccc12)C(=O)N[C@@H](CCCCN)C(=O)N[C@@H](CC(C)C)C(=O)N[C@@H](CC(C)C)C(=O)N1CCC[C@H]1C(=O)N[C@@H](CCC(=O)O)C(=O)N[C@@H](CC(N)=O)C(N)=O [P53-D18-D20]
unitsText: %
% Helix in water ([Θ]222): 9
//
compound: CC(=O)N[C@@H](CCC(=O)O)C(=O)N[C@H](C(=O)N[C@@H](Cc1ccccc1)C(=O)N[C@@H](CCC(=O)O)C(=O)N[C@@H](CC(=O)O)C(=O)N[C@@H](CC(C)C)C(=O)N[C@@H](Cc1c[nH]c2ccccc12)C(=O)N[C@@H](CCCCN)C(=O)N[C@@H](CC(C)C)C(=O)N[C@@H](CC(C)C)C(=O)N1CCC[C@H]1C(=O)N[C@@H](CCC(=O)O)C(=O)N[C@@H](CC(N)=O)C(N)=O)[C@@H](C)O [P53-E20]
unitsText: %
% Helix in water ([Θ]222): 9.2
//
compound: CC(=O)N[C@@H](CCC(=O)O)C(=O)N[C@@H](CCC(=O)O)C(=O)N[C@@H](Cc1ccccc1)C(=O)N[C@@H](CO)C(=O)N[C@@H](CC(=O)O)C(=O)N[C@@H](CC(C)C)C(=O)N[C@@H](Cc1c[nH]c2ccccc12)C(=O)N[C@@H](CCCCN)C(=O)N[C@@H](CC(C)C)C(=O)N[C@@H](CC(C)C)C(=O)N1CCC[C@H]1C(=O)N[C@@H](CCC(=O)O)C(=O)N[C@@H](CC(N)=O)C(N)=O [P53-E18]
unitsText: %
% Helix in water ([Θ]222): 7.5
